Data credit: patent US20180319855A1

assay: Ca2+ sensitivity curves of reconstituted photoproteins (L/Lmax vs free Ca2+); format: biochemical; conditions: CLZ-f; L/Lmax compared to Aeq-wt
readout name: Relative intensity at pCa 6.5
Output spec: single numeric token, no unit.

Below, each entry is followed by its recorded Relative intensity at pCa 6.5 result.
molecule	readout name	recorded number
Q159G: apoaequorin mutant, glutamine 159 replaced by glycine (SEQ ID NO:7) (protein, mutant aequorin) SKLTSDFDNPRWIGRHKHMFNFLDVNHNGKISLDEMVYKASDIVINNLGATPEQAKRHKDAVEAFFGGAGMKYGVETDWPAYIEGWKKLATDELEKYAKNEPTLIRIWGDALFDIVDKDQNGAITLDEWKAYTKAAGIIQSSEDCEETFRVCDIDESGGLDVDEMTRQHLGFWYTMDPACEKLYGGAVP	Relative intensity at pCa 6.5	3.3
QT + AD: apoaequorin double mutant Q159T + A123D (SEQ ID NO:16) (protein, mutant aequorin) SKLTSDFDNPRWIGRHKHMFNFLDVNHNGKISLDEMVYKASDIVINNLGATPEQAKRHKDAVEAFFGGAGMKYGVETDWPAYIEGWKKLATDELEKYAKNEPTLIRIWGDALFDIVDKDQNGDITLDEWKAYTKAAGIIQSSEDCEETFRVCDIDESGTLDVDEMTRQHLGFWYTMDPACEKLYGGAVP	Relative intensity at pCa 6.5	22.8
N121D: apoaequorin mutant, asparagine 121 replaced by aspartic acid (SEQ ID NO:9) (protein, mutant aequorin) SKLTSDFDNPRWIGRHKHMFNFLDVNHNGKISLDEMVYKASDIVINNLGATPEQAKRHKDAVEAFFGGAGMKYGVETDWPAYIEGWKKLATDELEKYAKNEPTLIRIWGDALFDIVDKDQDGAITLDEWKAYTKAAGIIQSSEDCEETFRVCDIDESGQLDVDEMTRQHLGFWYTMDPACEKLYGGAVP	Relative intensity at pCa 6.5	4.9
QD + AT: apoaequorin double mutant Q159D + A179T (SEQ ID NO:17) (protein, mutant aequorin) SKLTSDFDNPRWIGRHKHMFNFLDVNHNGKISLDEMVYKASDIVINNLGATPEQAKRHKDAVEAFFGGAGMKYGVETDWPAYIEGWKKLATDELEKYAKNEPTLIRIWGDALFDIVDKDQNGAITLDEWKAYTKAAGIIQSSEDCEETFRVCDIDESGDLDVDEMTRQHLGFWYTMDPTCEKLYGGAVP	Relative intensity at pCa 6.5	58.5

Alright, here's another molecule for you.
Query string: Given QT + AT: apoaequorin double mutant Q159T + A179T (SEQ ID NO:18) (protein, mutant aequorin) SKLTSDFDNPRWIGRHKHMFNFLDVNHNGKISLDEMVYKASDIVINNLGATPEQAKRHKDAVEAFFGGAGMKYGVETDWPAYIEGWKKLATDELEKYAKNEPTLIRIWGDALFDIVDKDQNGAITLDEWKAYTKAAGIIQSSEDCEETFRVCDIDESGTLDVDEMTRQHLGFWYTMDPTCEKLYGGAVP , state its recorded Relative intensity at pCa 6.5.
Result string: 29.0
